molecular target: GDP-bound KRAS protein (aa 1-169), containing both G12D and C118A amino acid substitutions (Homo sapiens, UniProt P01116, C118A/G12D); test: KRAS G12D Coupled Nucleotide Exchange Assay; format: biochemical
Sequence (P01116 1-169 isoform P01116-2 G12D/C118A): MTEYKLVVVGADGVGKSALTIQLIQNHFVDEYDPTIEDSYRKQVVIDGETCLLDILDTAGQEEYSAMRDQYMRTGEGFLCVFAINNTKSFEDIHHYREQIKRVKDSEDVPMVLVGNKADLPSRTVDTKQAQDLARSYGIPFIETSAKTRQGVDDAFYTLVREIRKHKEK
RECORDED ENDPOINT: IC50 (nM)
Number only, in nM; omit the unit.

Examples with answers:
>  <COMPOUND>
CCc1c(F)ccc2cc(O)cc(-c3ccc4c(N5CCCC6(CCO6)C5)nc(OC[C@@]56CCCN5C[C@H](F)C6)nc4c3F)c12 (stereo partly shown)

>  <VALUE UNITS>
nM

>  <IC50>
11

$$$$
>  <COMPOUND>
C#Cc1c(F)ccc2cc(N)cc(-c3c(F)cc4c(N5CCCC6(CNC(=O)O6)C5)nc(OC[C@@]56CCCN5C[C@H](F)C6)nc4c3F)c12 (stereo partly shown)

>  <VALUE UNITS>
nM

>  <IC50>
5

$$$$
>  <COMPOUND>
C#Cc1cccc2cc(O)cc(-c3ccc4c(N5CC6CC(O)C(C6)C5)nc(OC[C@@]56CCCN5C[C@H](F)C6)nc4c3F)c12 (single isomer, unassigned)

>  <VALUE UNITS>
nM

>  <IC50>
2

$$$$
>  <COMPOUND>
CCc1c(F)ccc2cc(O)cc(-c3ccc4c(N5CCCC6(CC(=O)N6)C5)nc(OC[C@@]56CCCN5C[C@H](F)C6)nc4c3F)c12 (stereo partly shown)

>  <VALUE UNITS>
nM

>  <IC50>
4

$$$$
>  <COMPOUND>
C/C=C\c1c(C)cc2[nH]ncc2c1-c1ccc2c(N3CCOC[C@@](C)(O)C3)nc(OC[C@@]34CCCN3C[C@H](F)C4)nc2c1F

>  <VALUE UNITS>
nM

>  <IC50>
4

$$$$
>  <COMPOUND>
N#Cc1cc2c(N3CCCOCC3)nc(OC[C@@]34CCCN3C[C@H](F)C4)nc2c(F)c1-c1cc(O)cc2ccccc12

>  <VALUE UNITS>
nM

>  <IC50>
28

$$$$

We now examine a further compound.
Exam item: Given the compound CCc1c(F)ccc2cc(O)cc(-c3c(F)cc4c(N5CCCC6(CNC(=O)O6)C5)nc(OC[C@@]56CCCN5C[C@H](F)C6)nc4c3F)c12 (single isomer, unassigned) [Example 56] , what is its reported IC50?
Marked response: 8

----------
molecular target: His-tagged KRAS G12D protein (Homo sapiens, UniProt P01116, G12D); test: KRAS G12D TR-FRET Assay
Sequence (P01116 1-188 isoform P01116-2 G12D): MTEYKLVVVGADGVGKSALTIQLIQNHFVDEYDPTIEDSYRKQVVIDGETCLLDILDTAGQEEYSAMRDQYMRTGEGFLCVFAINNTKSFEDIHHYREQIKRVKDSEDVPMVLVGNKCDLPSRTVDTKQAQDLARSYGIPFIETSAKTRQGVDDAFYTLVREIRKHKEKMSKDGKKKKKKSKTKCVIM
pIC50: −log10 of the molar value.
Response field class: enum, chosen by comparing pIC50 against lower bin (below 7), middle bin (7 to below 8), upper bin (8 or more)

>  <MOLECULE>
CCc1c(F)ccc2cc(O)cc(-c3ccc4c(N5CCCC(O)(C(F)F)C5)nc(OC[C@@]56CCCN5C[C@H](F)C6)nc4c3F)c12 (single isomer, unassigned) [Example 23]

>  <CATEGORY LABEL>
upper bin

$$$$
>  <MOLECULE>
N#Cc1cc2c(N3CCCOCC3)nc(OC[C@@]34CCCN3C[C@H](F)C4)nc2c(F)c1-c1cc(O)cc2ccccc12

>  <CATEGORY LABEL>
middle bin

$$$$

Exam item: Entry Cc1cc2[nH]ncc2c(-c2ccc3c(N4CCC[C@](O)(CF)C4)nc(OC[C@@]45CCCN4C[C@H](F)C5)nc3c2F)c1[C@H]1C[C@H]1C (atropisomer, axis not shown; (aS)) belongs to which category?
Marked response: upper bin

Exam item: Lab note: sort Oc1cc(-c2ccc3c(N4CCCOCC4)nc(OC[C@@]45CCCN4C[C@H](F)C5)nc3c2F)c2ccccc2c1 into the matching pIC50 band.
Marked response: middle bin

Exam item: Just checking, what class would you give CCc1c(F)ccc2cc(O)cc(-c3ccc4c(N5C[C@H](N)CC(F)(F)C5)nc(OC[C@@]56CCCN5C[C@H](F)C6)nc4c3F)c12 here?
Marked response: upper bin

Exam item: In plain terms, what class is CCc1c(F)ccc2cc(O)cc(-c3c(O)cc4c(N5CCC[C@@](C)(O)C5)nc(OC[C@@]56CCCN5C[C@H](F)C6)nc4c3F)c12 (single isomer, unassigned) [Example 28] ?
Marked response: lower bin

Exam item: Form field 'band' for C/C=C\c1c(Cl)cc2[nH]ncc2c1-c1ccc2c(N3CCCC4(CNC(=O)O4)C3)nc(OC[C@@]34CCCN3C[C@H](F)C4)nc2c1F (some centres unmarked)
Marked response: upper bin

Exam item: Band assignment needed for CCc1c(F)ccc2cc(N)cc(-c3c(F)cc4c(N5CCCC(O)(C(F)F)C5)nc(OC[C@@]56CCCN5C[C@H](F)C6)nc4c3F)c12 (some centres unmarked) please.
Marked response: lower bin
